target: Acetylcholinesterase (Rattus norvegicus, UniProt P37136)
Sequence (P37136 whole entry): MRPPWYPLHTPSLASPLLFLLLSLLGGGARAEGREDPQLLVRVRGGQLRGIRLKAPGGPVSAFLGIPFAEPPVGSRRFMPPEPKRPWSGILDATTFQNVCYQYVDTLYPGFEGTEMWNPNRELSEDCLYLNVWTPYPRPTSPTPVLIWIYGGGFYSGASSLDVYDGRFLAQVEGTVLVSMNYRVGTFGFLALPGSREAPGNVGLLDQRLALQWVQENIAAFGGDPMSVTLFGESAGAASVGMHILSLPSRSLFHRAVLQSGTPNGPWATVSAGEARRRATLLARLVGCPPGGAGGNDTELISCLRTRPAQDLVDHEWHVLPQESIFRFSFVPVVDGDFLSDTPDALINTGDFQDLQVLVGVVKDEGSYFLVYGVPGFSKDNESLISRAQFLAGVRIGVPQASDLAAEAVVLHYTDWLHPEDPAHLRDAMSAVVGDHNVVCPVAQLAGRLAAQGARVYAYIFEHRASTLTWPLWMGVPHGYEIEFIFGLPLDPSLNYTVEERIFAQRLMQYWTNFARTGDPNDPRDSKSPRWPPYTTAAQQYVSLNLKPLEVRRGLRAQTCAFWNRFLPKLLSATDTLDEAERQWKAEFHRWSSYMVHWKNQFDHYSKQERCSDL
Note to self: IC50 under 500 nM means Y, ties and anything higher get N.

Below, 3 compounds whose answers are already recorded.
# Molecular string, Class assignment
measured = [
    ("C#CCNCCCc1cn(-c2cc(NC(=S)NCC)ncn2)cn1", "Y"),
    ("C#CCN(CC)Cc1cn(-c2cc(NC(=S)NCC)ncn2)cn1", "Y"),
    ("C#CCN(CC#N)Cc1cn(-c2cc(NC(=S)NCC)ncn2)cn1", "N"),
]

We now examine a further compound.
Quick check: IC50 of C#CCN(C)Cc1cn(-c2cc(NC(=S)NCC)ncn2)cn1 under 500 nM?
Y

* * *

assay: in vitro; conditions: PAMPA
Use t when the recorded Papp at 12 h, 100 ug/ml is no lower than 3 ×10⁻⁶ cm/s; use f when it is lower.

Worked examples follow.
# Compound, Class assignment
measured = [
    ("C#CCN(C)Cc1cn(-c2cc(NC(=S)NCC)ncn2)cn1", "t"),
    ("C#CCN(C)CCc1cn(-c2cc(NC(=S)NCC)ncn2)cn1", "t"),
    ("C#CCNCc1cn(-c2cc(NC(=S)NCC)ncn2)cn1", "f"),
    ("C#CCNCCCc1cn(-c2cc(NC(=S)NCC)ncn2)cn1", "t"),
    ("C#CCNCCc1cn(-c2cc(NC(=S)NCC)ncn2)cn1", "t"),
]

Please find the next compound below.
Test whether the compound COc1ccc(CCN2CCC(Nc3nc4ccccc4n3Cc3ccc(F)cc3)CC2)cc1 [ASTEMIZOLE] records Papp at 12 h, 100 ug/ml of 3 ×10⁻⁶ cm/s or higher.
t

* * *

Target sequence: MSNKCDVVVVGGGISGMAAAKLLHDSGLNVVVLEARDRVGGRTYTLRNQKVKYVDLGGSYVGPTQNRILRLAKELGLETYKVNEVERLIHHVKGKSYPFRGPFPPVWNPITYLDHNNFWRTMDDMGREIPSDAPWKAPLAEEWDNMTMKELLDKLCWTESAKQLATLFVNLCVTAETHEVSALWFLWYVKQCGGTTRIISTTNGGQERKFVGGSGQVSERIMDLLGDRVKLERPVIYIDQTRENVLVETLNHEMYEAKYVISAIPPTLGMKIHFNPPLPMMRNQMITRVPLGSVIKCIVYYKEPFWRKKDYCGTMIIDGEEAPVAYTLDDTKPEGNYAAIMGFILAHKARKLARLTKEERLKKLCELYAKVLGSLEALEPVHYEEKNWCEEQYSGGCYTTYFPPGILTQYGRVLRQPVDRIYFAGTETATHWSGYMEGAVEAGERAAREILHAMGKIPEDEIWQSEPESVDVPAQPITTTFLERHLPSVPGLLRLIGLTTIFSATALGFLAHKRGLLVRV
Measurement type: pIC50
Please report pIC50 as the negative decimal logarithm of the molar concentration, giving only the number.

# Molecular string, pIC50
data = [
    ("C#CCN(C)Cc1cn(-c2cc(NC(=S)NCC)ncn2)cn1", 5.85),
]

Please indicate pIC50 recorded for C#CCN(C)CCCc1cn(-c2cc(NC(=S)NCC)ncn2)cn1
5.49

* * *

biological target: Amine oxidase [flavin-containing] A (Homo sapiens, UniProt P21397); assay: Inhibition of recombinant human MAOA at 50 uM using p-tyramine as substrate preincubated for 15 mins followed by substrate addition measured after 15 mins by Amplex red reagent based fluorescence assay; settings: 0.25 h
Sequence (P21397 whole entry): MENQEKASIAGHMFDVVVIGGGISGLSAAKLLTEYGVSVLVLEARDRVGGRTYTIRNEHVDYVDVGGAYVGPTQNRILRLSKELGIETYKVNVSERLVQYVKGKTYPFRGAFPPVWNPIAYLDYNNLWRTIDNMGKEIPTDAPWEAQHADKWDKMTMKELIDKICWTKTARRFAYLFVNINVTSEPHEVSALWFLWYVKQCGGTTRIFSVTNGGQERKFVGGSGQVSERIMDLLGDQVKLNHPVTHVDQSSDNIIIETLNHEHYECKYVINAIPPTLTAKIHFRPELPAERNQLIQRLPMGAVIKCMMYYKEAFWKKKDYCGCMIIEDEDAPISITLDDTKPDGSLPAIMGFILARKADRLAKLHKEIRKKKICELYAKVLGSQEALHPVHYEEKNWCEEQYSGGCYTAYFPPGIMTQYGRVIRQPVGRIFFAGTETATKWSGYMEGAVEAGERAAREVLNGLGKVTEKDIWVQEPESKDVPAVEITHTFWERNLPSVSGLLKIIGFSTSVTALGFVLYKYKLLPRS
Measurement type: inhibition at 50 µM
Could you write the number and then its unit?

Known results for compounds:
# Molecular string, Measurement type, Endpoint result
measured = [
    ("C#CCN(CC#N)CCc1cn(-c2cc(NC(=S)NCC)ncn2)cn1", "inhibition at 50 µM", "13.9%"),
    ("C#CCN(C)CCCc1cn(-c2cc(NC(=S)NCC)ncn2)cn1", "inhibition at 50 µM", "63.8%"),
]

Alright, here's another compound for you.
Identify measured inhibition at 50 µM associated with C#CCN(CC)CCc1cn(-c2cc(NC(=S)NCC)ncn2)cn1
13%

* * *

Known pIC50 of a selection of compounds
biological target: Acetylcholinesterase (Rattus norvegicus, UniProt P37136)
# pIC50 = -log10(concentration in molar units)

Some entries whose results are on file:
# Molecular string, Measurement type, Endpoint result
measured = [
    ("C#CCN(Cc1cn(-c2cc(NC(=S)NCC)ncn2)cn1)C(C)=O", "pIC50", 6.29),
    ("C#CCN(CCC)Cc1cn(-c2cc(NC(=S)NCC)ncn2)cn1", "pIC50", 6.31),
    ("C#CCN(CCCC)Cc1cn(-c2cc(NC(=S)NCC)ncn2)cn1", "pIC50", 6.17),
    ("C#CCN(CC)CCc1cn(-c2cc(NC(=S)NCC)ncn2)cn1", "pIC50", 5.87),
    ("C#CCN(Cc1ccccc1)Cc1cn(-c2cc(NC(=S)NCC)ncn2)cn1", "pIC50", 6.23),
]

State, for Acetylcholinesterase (Rattus norvegicus, UniProt P37136), measured pIC50 of the compound listed here: C#CCNCc1cn(-c2cc(NC(=S)NCC)ncn2)cn1
6.45

# lookup: Acetylcholinesterase (Rattus norvegicus, UniProt P37136) pIC50, key = C#CCN1CCN(Cc2cn(-c3cc(NC(=S)NCC)ncn3)cn2)CC1
6.32

* * *

Observed IC50 values for Amine oxidase [flavin-containing] B (Homo sapiens, UniProt P27338) are listed in what follows.

# Molecular string, IC50
records = [
    ("C#CCN(CCCC)Cc1cn(-c2cc(NC(=S)NCC)ncn2)cn1", "> 50 µM"),
    ("C#CCNCCc1cn(-c2cc(NC(=S)NCC)ncn2)cn1", "> 50 µM"),
]

Indicate its recorded IC50; the molecule in question is C#CCN(Cc1cn(-c2cc(NC(=S)NCC)ncn2)cn1)C(C)=O
> 50 µM
